Where do these numbers come from? They come from ChEMBL document CHEMBL1138025.

# method: Equilibrium water solubility at pH 3.1
# Assay type: physicochemical
recorded_metric: solubility thermodynamic

Examples from the recorded data:
>>> reported_measurement("CO/C(C)=C1/NC(=O)[C@H]([C@@H](C)O)NC(=O)c2csc(n2)-c2cc(O)c(-c3nc(C(=O)NC(CNCCN(C)C)C(N)=O)cs3)nc2-c2csc(n2)[C@@H]2COC(=O)c3c4c5c(cccc5n3O)COC(=O)[C@@H](O[C@H]3C[C@](C)(O)[C@H](N(C)C)[C@H](C)O3)[C@@H](OC4)[C@H](NC(=O)c3csc1n3)c1nc(cs1)C(=O)N2 (some centres undefined)")
"> 3800 µg/mL"
>>> reported_measurement("CO/C(C)=C1/NC(=O)[C@H]([C@@H](C)O)NC(=O)c2csc(n2)-c2cc(O)c(-c3nc(C(=O)NC(CN4CCOCC4)C(N)=O)cs3)nc2-c2csc(n2)[C@@H]2COC(=O)c3c4c5c(cccc5n3O)COC(=O)[C@@H](O[C@H]3C[C@](C)(O)[C@H](N(C)C)[C@H](C)O3)[C@@H](OC4)[C@H](NC(=O)c3csc1n3)c1nc(cs1)C(=O)N2 (some centres undefined)")
"> 2100 µg/mL"
>>> reported_measurement("CO/C(C)=C1/NC(=O)[C@H]([C@@H](C)O)NC(=O)c2csc(n2)-c2cc(O)c(-c3nc(C(=O)NC(CNCCNC(C)=O)C(N)=O)cs3)nc2-c2csc(n2)[C@@H]2COC(=O)c3c4c5c(cccc5n3O)COC(=O)[C@@H](O[C@H]3C[C@](C)(O)[C@H](N(C)C)[C@H](C)O3)[C@@H](OC4)[C@H](NC(=O)c3csc1n3)c1nc(cs1)C(=O)N2 (some centres undefined)")
"> 3000 µg/mL"

Consider the record given below.
Prompt: Given the entry CO/C(C)=C1/NC(=O)[C@H]([C@@H](C)O)NC(=O)c2csc(n2)-c2cc(O)c(-c3nc(C(=O)NC(CN4CCN(CCOCCO)CC4)C(N)=O)cs3)nc2-c2csc(n2)[C@@H]2COC(=O)c3c4c5c(cccc5n3O)COC(=O)[C@@H](O[C@H]3C[C@](C)(O)[C@H](N(C)C)[C@H](C)O3)[C@@H](OC4)[C@H](NC(=O)c3csc1n3)c1nc(cs1)C(=O)N2 (some centres undefined) , report its measured solubility thermodynamic.
Completion: > 3000 µg/mL
